The entries below come with measured cell viability values attached.
# Test system: MARIMO
# assay.details: cell viability relative to vehicle control; higher = less cytotoxic;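 also: after 48 h exposure read by CellTiter-Glo luminescence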
# condition.info: 10 µM; SRSF2 genotype: SRSF2 wt/wt
Counter-ions that a name gives are not always drawn.
Hey, just the number and the unit after it is fine.

COc1ccc2c(c1)[C@]1(C[C@H]1c1ccc3c(/C=C/c4ccc(CN5C[C@@H](C)O[C@@H](C)C5)cc4)n[nH]c3c1)C(=O)N2 :: 29.3%
C[S+](CC[C@H](N)C(=O)[O-])C[C@H]1O[C@@H](n2cnc3c(N)ncnc32)[C@H](O)[C@@H]1O (stereo partly specified) [Ademetionine disulfate tosylate] :: 110%
COc1ccc2cc(CCC(C)=O)ccc2c1 [Nabumetone] :: 95.3%

The recorded cell viability for COc1cc(C=CC=O)ccc1O [Ferulaldehyde] is 103%

The recorded cell viability for C=C1CCC[C@]2(C)C[C@]3(O)OC(=O)C(C)=C3C[C@@H]12 [Atractylenolide III] is 102%

The recorded cell viability for CN1CCN(C(=O)c2ccc(-c3ccc4c(C=O)c(O)ccc4c3)s2)CC1 is 53.4%

---

# Test system: OCI-AML2
# assay.details: cell viability relative to vehicle control; higher = less cytotoxic
# condition.info: 10 µM; SRSF2 genotype: wt/wt
Counter-ions that a name gives are not always drawn.
The entries below come with measured cell viability values attached.
Just the number please, in %, no unit attached.

Recorded results for 3 compounds are shown here.
C[C@H](N=C(NC#N)Nc1cccc2ncccc12)c1ccccc1 :: 112
COC(=O)c1ccc(O)c(OC)c1 [Methyl Vanillate] :: 107
CN1CCC(=C2c3ccccc3C=Cc3ccccc32)CC1 [Cyproheptadine hydrochloride (Periactin)] :: 85

The recorded cell viability for C=CC(=O)N1CC/C(=C\c2ccc(F)c([N+](=O)[O-])c2)C(=O)/C(=C/c2ccc(F)c([N+](=O)[O-])c2)C1 is 0.35

---

# System: MOLM14
# assay.details: cell viability relative to vehicle control; higher = less cytotoxic
# condition.info: 10 µM; SRSF2 genotype: SRSF2 wt/wt
Where a name gives a salt, the structure may show the parent alone.
property: cell viability (%)
Just the number please, in %, no unit attached.

Recorded results for 3 molecules are shown here.
Cc1ccc(Nc2nccc(N(C)c3ccc4c(C)n(C)nc4c3)n2)cc1S(N)(=O)=O [Pazopanib] :: 83
OCCn1cc(-c2cnc3nnn(Cc4ccc5ncccc5c4)c3n2)cn1 :: 100
O=C[C@H](O)[C@@H](O)[C@H](O[C@H]1O[C@H](CO)[C@@H](O[C@H]2O[C@H](CO)[C@@H](O[C@H]3O[C@H](CO)[C@@H](O[C@H]4O[C@H](CO)[C@@H](O)[C@H](O)[C@H]4O)[C@H](O)[C@H]3O)[C@H](O)[C@H]2O)[C@H](O)[C@H]1O)[C@H](O)CO :: 106

The recorded cell viability for O=C1CCc2ccc(OCCCCN3CCN(c4cccc(Cl)c4Cl)CC3)cc2N1 is 98

The recorded cell viability for C[C@]1(COc2ccc(N3CCC(Oc4ccc(OC(F)(F)F)cc4)CC3)cc2)Cn2cc([N+](=O)[O-])nc2O1 is 101

The recorded cell viability for O=C(NC1CCN(CCCCC2(C(=O)NCC(F)(F)F)c3ccccc3-c3ccccc32)CC1)c1ccccc1-c1ccc(C(F)(F)F)cc1 [Lomitapide Mesylate] is 0.3

The recorded cell viability for CO/N=C(\C(=O)N[C@@H]1C(=O)N2C(C(=O)OC(C)OC(C)=O)=C(COC(N)=O)CS[C@H]12)c1ccco1 (stereo partly drawn) is 107

The recorded cell viability for CNCc1ccc(C)c(NC(=O)c2ccc(Nc3nc(-c4ccccc4)c4ccccc4n3)cc2)c1 is 0.52

---

# Test system: MARIMO
# assay.details: cell viability relative to vehicle control; higher = less cytotoxic
# condition.info: 10 µM; SRSF2 genotype: SRSF2 P95H/wt
The entries below come with measured cell viability values attached.

Recorded results for 2 compounds are shown here.
COc1cccc(C=NCCN=Cc2cccc(OC)c2[O-])c1[O-].[Cl-].[Mn+3] :: 92%
CCC(=O)O[C@]1(C(=O)SCF)[C@H](C)C[C@H]2[C@@H]3C[C@H](F)C4=CC(=O)C=C[C@]4(C)[C@@]3(F)[C@@H](O)C[C@@]21C [Fluticasone propionate (Flonase, Veramyst)] :: 87.8%

The recorded cell viability for COc1cc2ncnc(Nc3ccc(Cl)cc3F)c2cc1OC is 91.9%

---

# System: MOLM14
# assay.details: cell viability relative to vehicle control; higher = less cytotoxic
# condition.info: 10 µM; SRSF2 genotype: SRSF2 P95H/wt
Where a name gives a salt, the structure may show the parent alone.
The entries below come with measured cell viability values attached.
Just the number please, in %, no unit attached.

CCS(=O)(=O)N1CCC([C@@H](C)n2c(C)c(C(=O)NCc3c(OC)cc(C)[nH]c3=O)c3ccccc32)CC1 :: 100
COc1nc(C)cnc1NS(=O)(=O)c1cccnc1-c1ccc(-c2nnco2)cc1 [Zibotentan (ZD4054)] :: 100
CNc1ncc2cc(-c3cc(NC(=O)NCCC(C)(C)C)c(F)cc3C)c(C)nc2n1 :: 27.2
CCC(C)SSc1ncc[nH]1 (stereo unspecified) :: 1.56
Cc1ncc(CCCN(C)C)cc1Nc1ncc2c(n1)-c1ccc(C(F)(F)F)cc1NC(=S)C2 :: 18.3

The recorded cell viability for CCOC(=O)Nc1ccc(NCc2ccc(F)cc2)nc1N [Flupirtine maleate] is 101

The recorded cell viability for COc1cc(/C=C/C(=O)N2CCN(CC(=O)N3CCCC3)CC2)cc(OC)c1OC [Cinepazide maleate] is 106

The recorded cell viability for COc1cc(-c2cc(-c3ccc(N4CCNCC4)cc3)cnc2C)cc(OC)c1OC is 37.1

The recorded cell viability for CNC[C@@H](O)c1ccc(O)c(O)c1 [L-Adrenaline (Epinephrine)] is 87.9

The recorded cell viability for CCN(Cc1ccncc1)C(=O)C(CO)c1ccccc1 (stereo unspecified) [Tropicamide] is 97.7

The recorded cell viability for COc1ccc(/C=C/c2cc(O)cc(O[C@@H]3O[C@H](CO)[C@@H](O)[C@H](O)[C@H]3O)c2)cc1O [Rhapontin] is 90.7

The recorded cell viability for Oc1ccc(Cc2nc3c(Cc4ccccc4)nc(-c4ccc(O)cc4)cn3c2O)cc1 [Coelenterazine] is 86.2

The recorded cell viability for Cc1[nH]c2ccccc2c1CCNCc1ccc(/C=C/C(=O)NO)cc1 [Panobinostat (LBH589)] is 0.67

---

# System: MOLM14
# assay.details: cell viability relative to vehicle control; higher = less cytotoxic
# condition.info: 10 µM; SRSF2 genotype: SRSF2 P95H/wt
Where a name gives a salt, the structure may show the parent alone.
The entries below come with measured cell viability values attached.
Just the number please, in %, no unit attached.

Recorded results for 5 compounds are shown here.
NC(=O)c1[nH]cnc1N [4-Amino-5-imidazolecarboxamide] :: 99.1
CC(C)(C)NC[C@H](O)COc1nsnc1N1CCOCC1 [Timolol Maleate] :: 99.3
CC(C)=CCC[C@@H](C)CC=O [Citronellal] :: 103
C[N+]1(C)[C@@H]2C[C@@H](OC(=O)C(O)(c3cccs3)c3cccs3)C[C@H]1[C@@H]1O[C@@H]12 [Tiotropium Bromide hydrate] :: 105
CC(C)(O)CC[C@@H](O)[C@](C)(O)[C@H]1CC[C@@]2(O)C3=CC(=O)[C@@H]4C[C@@H](O)[C@@H](O)C[C@]4(C)[C@H]3CC[C@]12C [20-Hydroxyecdysone] :: 106

The recorded cell viability for O=C(Nc1cc(Cl)cc2c1[nH]c1cnccc12)c1cccnc1 is 85.2

The recorded cell viability for C[C@@H]1CC[C@H]2C(C)(C)[C@H]3C[C@@]12CC[C@@]3(C)O [Cedrol] is 104

---

# System: MOLM14
# assay.details: cell viability relative to vehicle control; higher = less cytotoxic
# condition.info: 10 µM; SRSF2 genotype: SRSF2 P95H/wt
Structures can show the parent of a compound that is named as a salt.
# note: exactly 90% is not below, so it is class 0; use class 1 for cell viability strictly under it

Past entries and their recorded results:
CCN(CC)CC(=O)Nc1c(C)cccc1C [Lidocaine hydrochloride] :: class 0
C[C@]1(COc2ccc(N3CCC(Oc4ccc(OC(F)(F)F)cc4)CC3)cc2)Cn2cc([N+](=O)[O-])nc2O1 [Delamanid] :: class 0
CN(CCNc1ccnc2cc(Cl)ccc12)CCNc1ccnc2cc(Cl)ccc12 :: class 1
O=C(c1ccccc1)C(O)O [Phenylglyoxal hydrate] :: class 1

Lab log: compare recorded cell viability with 90%; is it strictly lower for CCCCCCCCCCCCCCCCOc1nc2ccc(C)cc2c(=O)o1 [Cetilistat] ?
class 0

Lab log: compare recorded cell viability with 90%; is it strictly lower for CCCC(CCC)C(N)=O [Valpromide] ?
class 0

Lab log: compare recorded cell viability with 90%; is it strictly lower for O=C(c1ccc(OCCN2CCCCC2)cc1)c1c(-c2ccc(O)cc2)sc2cc(O)ccc12 [Evista (Raloxifene Hydrochloride)] ?
class 1
